- measuredTarget: Src (Homo sapiens)
- measurementDescription: Tyrosine kinase activity of Src using poly E4Y and 32P-ATP
- Type: biochemical
- conditionDetails: * = Extrapolated value from the graph
valueKind: IC50 (µM)

C[SH]1CCC(N)C(=O)[N](O)[Co]1[OH] (racemic)	176
CC(=O)C=C(C)[O-].CC(=O)C=C(C)[O-].[Co+2]	177

(I) NCCN.[Cl-].[Co+2].[OH-]
(II) CC(C)CC(N)C(N)=O.[Cl-].[Cl-].[Co+2] (stereo not drawn)
Which record shows the lower IC50: the first, I , or the second, II ? Refer to your chosen item by its label in the answer. II

* * *

- measuredTarget: FGF receptor (FGFr) (Homo sapiens, UniProt P11362)
- Sequence (P11362 398-822): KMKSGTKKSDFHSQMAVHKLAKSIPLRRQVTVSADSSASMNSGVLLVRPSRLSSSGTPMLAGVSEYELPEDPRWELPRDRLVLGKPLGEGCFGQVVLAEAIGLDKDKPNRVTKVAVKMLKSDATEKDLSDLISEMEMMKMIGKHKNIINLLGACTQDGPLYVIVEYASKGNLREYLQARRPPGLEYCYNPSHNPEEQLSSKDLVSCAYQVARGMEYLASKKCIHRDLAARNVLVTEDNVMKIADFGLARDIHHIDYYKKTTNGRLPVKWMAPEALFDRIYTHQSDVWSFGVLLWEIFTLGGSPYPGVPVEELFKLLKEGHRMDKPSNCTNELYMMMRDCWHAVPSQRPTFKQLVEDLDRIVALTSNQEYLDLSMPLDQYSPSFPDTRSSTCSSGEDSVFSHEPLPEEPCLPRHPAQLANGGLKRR
- measurementDescription: Tyrosine kinase activity of FGFr using poly E4Y and 32P-ATP
- Type: biochemical
- conditionDetails: * = Extrapolated value from the graph
valueKind: IC50 (µM)

Below, 2 compounds whose answers are already recorded.
CC(=O)C=C(C)[O-].CC(=O)C=C(C)[O-].[Co+2]	233
O=Cc1ccccc1[O-].O=Cc1ccccc1[O-].[Co+2] [Complex 44, Co(salicylaldehyde)2]	148

(a) NC(=O)C(N)Cc1ccc(O)cc1.[OH][Co][Cl] (stereo not shown)
(b) N[C@@H]1CCCC[C@H]1N.[Cl-].[Cl-].[Co+2] (racemic)
// compare measured IC50, left a , right b , return larger Refer to your chosen item by its label in the answer. a

* * *

- measuredTarget: Csk (Homo sapiens)
- Construct: GST (glutathione-S-transferase); made in house; host or cells: E. coli (pGEX vector)
- measurementDescription: Tyrosine kinase activity of Csk using poly E4Y and 32P-ATP
- Format: biochemical
- conditionDetails: * = Extrapolated value from the graph
valueKind: IC50 (µM)

NC(=O)CCC(N)C(=O)[O][Co][Cl] (centres unmarked) [Complex 20]	281

(1) [Co+2].[O-]c1ccccc1C=Nc1ccccc1N=Cc1ccccc1[O-]
(2) CC(C)CC(N)C(N)=O.[Cl-].[Cl-].[Co+2] (centres unmarked)
// compare measured IC50, left 1 , right 2 , return larger Refer to your chosen item by its label in the answer. 2
(2: 211 µM, 1: 128 µM)

* * *

- measuredTarget: UniProtKB P11362
- measurementDescription: Tyrosine kinase activity of FGFr using poly E4Y and 32P-ATP
- Assay type: biochemical
- Description: Recombinant human Src was expressed using the baculovirus-insect cell system and purified as published (Budde et al., 1993). Recombinant Csk and the FGF receptor (FGFr) were expressed as glutathione-S-transferase fusion proteins using the pGEX expression vector and E. coli, and purified as described (Sun et al., 1995). The tyrosine kinase activity of Src, Csk and FGFr was determined using poly E4Y and ^32P-ATP. […]
valueKind: IC50 (µM)

Below, 5 molecules whose answers are already recorded.
NCC(N)=O.[Cl-].[Cl][Co][Cl].[Na+] [Complex 17]	22
NCCN.[Cl-].[Co+2].[OH-] [Complex 24]	24
Nc1ccccc1N.[Cl-].[Cl-].[Co+2] [Complex 25]	14
CN1CCCN=Cc2ccccc2[O][Co][O]c2ccccc2C=NCCC1 [Complex 40]	41
[Co+2].[O-]c1ccccc1C=NCCN=Cc1ccccc1[O-] [Complex 35, Co[N,N-bis(salicylidene)ethylenediamine]]	3

(1) [Co+2].[O-]c1ccccc1C=Nc1ccccc1N=Cc1ccccc1[O-] [Complex 36]
(2) CC(C)CC(N)C(N)=O.[Cl-].[Cl-].[Co+2] (stereo not drawn) [Complex 19]
// compare measured IC50, left 1 , right 2 , return larger Refer to your chosen item by its label in the answer. 2
(2: 45 µM, 1: 1 µM)

* * *

- measuredTarget: Src (Homo sapiens)
- measurementDescription: Tyrosine kinase activity of Src using poly E4Y and 32P-ATP
- Assay type: biochemical
valueKind: IC50 (µM)

Below, 2 compounds whose answers are already recorded.
NCCC(=O)NO.[OH][Co][OH]	100
[Cl][Co]1([Cl])[PH](c2ccccc2)(c2ccccc2)CC[PH]1(c1ccccc1)c1ccccc1	66

(P) NC(=O)C(N)Cc1ccc(O)cc1.[Cl-].[Cl-].[Co+2] (centres unmarked)
(Q) NC(=O)C(N)Cc1ccc(O)cc1.[OH][Co][Cl] (centres unmarked)
(R) N[C@@H]1CCCC[C@H]1N.[Cl-].[Cl-].[Co+2] (racemic)
(S) Nc1ccccc1N.[Cl-].[Cl-].[Co+2]
Sort the 4 compounds by IC50; largest first, smallest last. Use the labels to give the requested order. R, Q, P, S
(R: 79 µM, Q: 46 µM, P: 28 µM, S: 9 µM)

(a) [Co+2].[O-]c1ccccc1C=Nc1ccccc1N=Cc1ccccc1[O-]
(b) NC(=O)CCC(N)C(=O)[O][Co][Cl] (centres unmarked) [Complex 20]
(c) O=C(C=C(O)C(F)(F)F)C(F)(F)F
Sort the 3 compounds by IC50; largest first, smallest last. Use the labels to give the requested order. c, b, a
(c: 105 µM, b: 57 µM, a: 28 µM)

(a) NCCNc1cccc2ccccc12.[Cl-].[Cl-].[Co+2]
(b) [Co+2].[O-]c1ccccc1C=NCCN=Cc1ccccc1[O-] [Complex 35, Co[N,N-bis(salicylidene)ethylenediamine]]
// compare measured IC50, left a , right b , return larger Refer to your chosen item by its label in the answer. b
(b: 108 µM, a: 65 µM)

* * *

Each item that follows carries a reported IC50.
- measuredTarget: Csk (Homo sapiens, UniProt P41240)
- Construct: GST (glutathione-S-transferase); made in house; host or cells: E. coli (pGEX vector)
- measurementDescription: Tyrosine kinase activity of Csk using poly E4Y and 32P-ATP
- Type: biochemical
The reply should contain only the number, in µM.

Below, 4 molecules whose answers are already recorded.
N[C@H](c1ccccc1)[C@H](N)c1ccccc1.N[C@H](c1ccccc1)[C@H](N)c1ccccc1.[Cl][Co][Cl].[Cl][Co][Cl]	50
NC(=O)C(N)Cc1c[nH]c2ccccc12.[O-][Cl+3]([O-])([O-])[O][Co][O][Cl+3]([O-])([O-])[O-] (centres unmarked)	77
N[C@H](c1ccccc1)[C@@H](N)c1ccccc1.N[C@H](c1ccccc1)[C@@H](N)c1ccccc1.[Cl][Co][Cl].[Cl][Co][Cl]	59
O=C(NO)c1ccccc1O.O=C(NO)c1ccccc1O.[Cl][Co][Cl]	92

Now consider the entry below.
Could you share which IC50 value was measured for [Co+2].[O-]c1ccccc1C=NCCN=Cc1ccccc1[O-] [Complex 35, Co[N,N-bis(salicylidene)ethylenediamine]] ? 92

* * *

- measuredTarget: FGF receptor (FGFr) (Homo sapiens)
- measurementDescription: Tyrosine kinase activity of FGFr using poly E4Y and 32P-ATP
- Assay type: biochemical
valueKind: IC50 (µM)

Below, 7 compounds whose answers are already recorded.
O=C([O-])c1ccccc1O.O=C([O-])c1ccccc1O.[Co+2]	182
NC(=O)CCC(N)C(N)=O.[Cl][Co][Cl] (stereo not drawn)	46
NC(=O)CCC(N)C(=O)[O][Co][Cl] (stereo not drawn) [Complex 21]	93
NC(Cc1ccc(O)cc1)C(=O)NO.[Co+2].[O-][Cl+3]([O-])([O-])[O-].[O-][Cl+3]([O-])([O-])[O-] (stereo not drawn)	14
O=C(NO)c1ccccc1O.O=C(NO)c1ccccc1O.[Cl][Co][Cl]	2
NC(=O)CCC(N)C(=O)[O][Co][Cl] (stereo not drawn) [Complex 20]	100
CC(=O)C=C([O-])c1ccccc1.CC(=O)C=C([O-])c1ccccc1.[Co+2]	83

(I) O=C([O][Co][O]C(=O)c1ccccc1S)c1ccccc1S
(II) NCCNc1cccc2ccccc12.[Cl-].[Cl-].[Co+2]
Which record shows the lower IC50: the first, I , or the second, II ? Refer to your chosen item by its label in the answer. II

* * *

- measuredTarget: Src (Homo sapiens, UniProt P12931)
- Sequence (P12931 whole entry): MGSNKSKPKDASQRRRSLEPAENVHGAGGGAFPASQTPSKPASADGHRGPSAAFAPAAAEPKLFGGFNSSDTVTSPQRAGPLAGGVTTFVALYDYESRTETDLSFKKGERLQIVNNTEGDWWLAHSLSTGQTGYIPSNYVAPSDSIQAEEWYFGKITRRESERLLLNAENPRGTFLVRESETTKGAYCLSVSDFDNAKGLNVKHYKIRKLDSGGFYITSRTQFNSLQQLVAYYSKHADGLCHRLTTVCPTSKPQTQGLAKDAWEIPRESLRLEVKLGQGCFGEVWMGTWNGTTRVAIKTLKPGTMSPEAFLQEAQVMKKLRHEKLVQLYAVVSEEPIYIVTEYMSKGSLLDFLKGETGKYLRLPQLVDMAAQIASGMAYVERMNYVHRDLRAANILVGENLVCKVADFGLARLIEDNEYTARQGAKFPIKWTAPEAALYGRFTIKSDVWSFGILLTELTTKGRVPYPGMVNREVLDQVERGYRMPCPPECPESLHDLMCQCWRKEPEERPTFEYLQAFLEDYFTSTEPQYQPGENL
- measurementDescription: Tyrosine kinase activity of Src using poly E4Y and 32P-ATP
- Type: biochemical
valueKind: IC50 (µM)

Below, 6 compounds whose answers are already recorded.
NC(=O)C(N)Cc1c[nH]c2ccccc12.[O-][Cl+3]([O-])([O-])[O][Co][O][Cl+3]([O-])([O-])[O-] (centres unmarked) [Complex 13]	24
CC(=O)C=C([O-])c1ccccc1.CC(=O)C=C([O-])c1ccccc1.[Co+2] [Complex 43]	47
N[C@H](c1ccccc1)[C@@H](N)c1ccccc1.N[C@H](c1ccccc1)[C@@H](N)c1ccccc1.[Cl][Co][Cl].[Cl][Co][Cl] [Complex 27]	7
CC(C)CC(N)C(N)=O.[Cl-].[Cl-].[Co+2] (centres unmarked) [Complex 19]	35
N[C@H](c1ccccc1)[C@H](N)c1ccccc1.N[C@H](c1ccccc1)[C@H](N)c1ccccc1.[Cl][Co][Cl].[Cl][Co][Cl] [Complex 31]	55
O=C(NO)c1ccccc1O.O=C(NO)c1ccccc1O.[Cl][Co][Cl] [Complex 33]	6

(I) NC(=O)CCC(N)C(=O)[O][Co][Cl] (centres unmarked) [Complex 21]
(II) CN1CCCN=Cc2ccccc2[O][Co][O]c2ccccc2C=NCCC1 [Complex 40]
// compare measured IC50, left I , right II , return larger Refer to your chosen item by its label in the answer. II
(II: 95 µM, I: 58 µM)
